EXPERIMENT: BET inhibitor-based combinations targeting novel dependencies in MECOM-rearranged (r) AML: HNT-34 cell line (AID 2202234); also: nearly all actives have a fitted effect of over 35% in size
TEST_SETTINGS: HNT-34 AML viability, CellTiter-Glo luminescence, 48 h; series mostly up to 46 µM
Inconclusive results are not listed. Active and inactive are the calls of the source. Calls follow the shape of the dose curve; as a rule, active = well fitted inhibition curve with a large enough effect; inconclusive = small, poorly fitted or top-dose-only effect; inactive = no such curve, though single readings can be large or run the other way.
Choose the fitting class; nothing outside true (1) (active), false (0) (inactive) is accepted.

Identify the outcome logged in this assay for the compound shown: Fc1ccc(CNc2ncnc3ccc(F)cc23)cc1 true (1)

Tell me the assay call for CN(C)C/C=C/C(=O)Nc1cccc(C(=O)Nc2cccc(Nc3ncc(Cl)c(-c4c[nH]c5ccccc45)n3)c2)c1 please. true (1)

Which result was noted for this compound in the test: Cn1c2cc(S(C)=O)sc2c2cnn(Cc3cccc(N)c3)c(=O)c21 (stereo not given) false (0)

Name the outcome recorded for CS(=O)(=O)CCNCc1ccc(-c2ccc3ncnc(Nc4ccc(OCc5cccc(F)c5)c(Cl)c4)c3c2)o1 in the assay. true (1)

Which outcome did this test record for the compound COc1cc2nccc(Oc3ccc(NC(=O)NC4CC4)c(Cl)c3)c2cc1C(N)=O ? true (1)

---

ASSAY_TARGET: Aldehyde dehydrogenase, mitochondrial (Homo sapiens) (UniProt P05091)
EXPERIMENT: qHTS for Inhibitors of the Aldehyde Dehydrogenase Family (ALDH2) Primary screen (AID 2061308);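 also: plate controls were vehicle for no effect and reference inhibitor for full effect; nearly all actives have a fitted effect of over 55% in size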
TEST_SETTINGS: ALDH2 enzyme inhibition qHTS, 1536-well; series mostly up to 56 µM
Results filed as inconclusive are left out. Calls of active or inactive are those of the source. The call rests on the fitted dose curve; in most records, active means well fitted inhibition curve with a large enough effect; inconclusive means small, poorly fitted or top-dose-only effect; inactive means flat fitted curve, though single readings scatter.
PROPERTY_LABEL: activity change, negative = inhibition

Reference set (4 entries):
MOLECULE	VALUE_MEASURED
CC(=O)OCC1OC(O[C@H]2CC[C@@]3(C)C(CC[C@]4(C)C3CC=C3[C@@H]5CC(C)(C)CC[C@]5(C(=O)O)CC[C@]34C)[C@]2(C)CO)C(O)C(O)C1OC1OC(C)C(O)C(OC2OCC(O)C(O)C2O)C1O (some centres undefined)	inactive
COc1ccc(C2Nc3ccccc3C(=O)N2Cc2ccccc2)cc1COc1ccc(Cl)cc1 (centres undefined)	inactive
CC(C)(C)c1ccc(S(=O)(=O)Nc2ccc(Cl)cc2C(=O)c2cc[n+]([O-])cc2)cc1	inactive
CC(C)C[C@H](CO)Nc1nc(S[C@@H](C)c2ccccc2)nc2nc(N)sc12	inactive

Please look up its activity change, negative = inhibition: O=C1OCC(c2ccccc2)=C1Cc1ccccc1 inactive

Endpoint output: activity change, negative = inhibition of C=CC(C)(C)C12C=C(OC)C(=O)N3C(C(C)C)C(=O)NC31N(OC)c1ccccc12 (centres undefined) . Value? inactive

Which activity change, negative = inhibition is listed for Clc1ccc(CN[C@H]2CCN(c3ncc(Br)cn3)C2)c(Cl)c1 ? inactive

Fill in the blank: the reported activity change, negative = inhibition of CNC(=O)c1ccccc1Nc1nc(Nc2ccc(N3CCOCC3)cc2OC)ncc1Cl is ____. inactive

Entry CCOc1cc(CNC2CCCC2)cc(Cl)c1OCc1ccc(Cl)cc1 : reported activity change, negative = inhibition = ? inactive

---

I'd appreciate it if you could supply activation values for the items below.
ASSAY_TARGET: Cellular tumor antigen p53 (Homo sapiens)
EXPERIMENT: Primary qHTS for small molecule compounds that upregulate eGFP-tagged delta133p53alpha (in N-terminal) cells. (AID 2060322);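 also: cells pre-induced with doxycycline then dosed without doxycycline; 0% = DMSO vehicle and 100% = reference activator; nearly all actives have a fitted effect of over 75% in size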
TEST_SETTINGS: NCI-H358 eGFP-delta133p53alpha fluorescence, 24 h; hits give high values
Records with an inconclusive call do not appear.
The answer is to be given in %; state only the numeric part.

Need activation of O=C(CS(=O)Cc1ccco1)NCC=CCOc1cc(CN2CCCCC2)ccn1 (stereo not given) , thanks. 38.6

Given the entry FC(F)(F)Oc1ccc(-c2ccc3nnc(C(F)(F)F)n3c2)cc1 , report its measured activation. -3.34

Bench note: what activation did O=c1[nH]c2ccc(C#CCN3CCC(Cc4ccccc4)CC3)cc2[nH]1 show? -3.57

If you can, please state the reported activation value of Cc1cccc(Oc2cnc(=O)[nH]c2)c1 . -25

Sample COc1ccc([C@@H]2OC[C@H]3[C@@H]2CO[C@@H]3c2ccc(OC3OC(CO)C(O)C(O)C3O)c(OC)c2)cc1OC (stereo not given in full) — what was its activation? 10.7

Would you kindly share the measured activation for CCOC(=O)[C@H]1O[C@H]1C(=O)N[C@@H](CC(C)C)C(=O)NCCC(C)C ? 17.3

For the compound shown here, COC(=O)c1cc(Cl)ccc1NS(=O)(=O)C(F)(F)F , give the reported activation. 8.47

activation lookup needed for COc1ccc2c3c1OC1C[C@@H](O)C=C[C@@]31CCN(C)C2 (stereo not given in full) , thanks. 8.8

Recorded activation of CC(=O)OCC(=O)[C@@]1(O)[C@H](C)C[C@H]2[C@@H]3C=C(C)C4=Cc5c(cnn5-c5ccccc5)C[C@]4(C)[C@@H]3[C@@H](O)C[C@@]21C , please. 2.08

Any idea what activation was measured for Nc1ncnc2c1C(=O)N(c1ccc(C3CCC(CC(=O)O)CC3)cc1)CCO2 (stereo not given) ? 18.6
